This collection of values is drawn from PubChem BioAssay (NCI).

Tested on: M14 melanoma
Assay: NCI tumour cell line growth inhibition, 48 h
So I've got a bunch of compounds here, and I need their TGI values.

Compound	TGI
CCCN1CCCC(c2ccc(Nc3nc(Nc4cc(F)ccc4C(N)=O)c4cc[nH]c4n3)c(OC)c2)C1 (centres undefined)	4.8 µM
COCc1nc(C#N)c(N)o1	> 10 µM
COc1ccc(C2OC2C(=O)C23CC4CC(CC(C4)C2)C3)cc1 (centres undefined)	> 100 µM
O=C(NNC(=O)c1cc2ccccc2[nH]1)c1cc2ccccc2[nH]1	> 100 µM
CC(=O)O[C@@H]1[C@H]2O[C@H]2[C@H]2O[C@@]2(COC(=O)c2ccccc2)[C@H]1OC(C)=O	> 100 µM

Hi! Can you tell me TGI for each of these compounds?
1. CNC(=S)N/N=C/CSC/C=N/NC(=S)NC
2. CN(C)CCCn1c2c(c3ccc(N4CCNCC4)cc3c1=O)C(=O)c1ccccc1-2
3. C=C(C)[C@@H]1CC[C@]2(C(=O)OC)CC[C@]3(C)[C@H](CC[C@@H]4[C@@]5(C)CC/C(=N\OCCC(=NCCC#N)NOCCC#N)C(C)(C)[C@@H]5CC[C@]43C)[C@@H]12
4. CC(C(=O)NCNC(=O)c1ccccc1)C(=O)NCc1ccccc1 (centres undefined)

["> 100 µM", "2.39 µM", "> 50 µM", "> 100 µM"]

----------
Hi there, I'd appreciate the recorded log10 of TGI for every entry that follows.
Tested on: UO-31 renal
Experiment: NCI tumour cell line growth inhibition, 48 h
Please note: log10 values; quantity TGI; unit µM.

Below: 2 molecules and their reported log10 of TGI.
>>> df
                                   molecule  study_system  quantity_name  readout_value
0  O=C(c1ccco1)c1c(C(F)(F)F)n([O-])c2cc(Cl)c(Cl)cc2[n+]1=O   UO-31 renal   log10 of TGI          -0.68
1  COc1cc(F)c(F)c(F)c1C(=O)c1cnc(NC2CCN(S(C)(=O)=O)CC2)nc1N   UO-31 renal   log10 of TGI           1.13

Need log10 of TGI for each of these molecules.
1. c1ccc2sc(C3(N4CCCCCC4)CCCCC3)cc2c1
2. FC(F)(F)c1ccc2c(c1)nc(Cc1ccc(Cl)cc1)n2CC1CCCN2CCCCC12 (stereo not drawn)
3. CC(C)OC(=O)OCOP(=O)(OCOC(=O)OC(C)C)C1CCCN(O)C1=O (stereo not drawn)
4. N#CSc1c[nH]c2cccc(/C=C/C(=O)/C=C(O)/C=C/c3cccc4[nH]cc(SC#N)c34)c12
5. CCOc1ccc(-c2nc3ccc(-c4nc5ccc(N6CCN(C)CC6)cc5[nH]4)cc3[nH]2)cc1OCC
6. BrC(/C=N/Nc1nnc(-c2ccccc2)c(-c2ccccc2)n1)C(Br)c1ccccc1 (stereo not drawn)
7. CS(=O)c1cc(=O)c2ccccc2s1 (stereo not drawn)

1: 1.75; 2: -1.01; 3: 1.83; 4: -0.19; 5: 1.56; 6: 1.78; 7: 1.35

Batch: log10 of TGI for all items listed.
1. OC1(c2ccccc2)c2ccccc2N(c2ccccc2)c2ccc(Cl)cc21 (stereo not drawn)
2. CN(C)CCCn1c2c(c3ccc(N4CCNCC4)cc3c1=O)C(=O)c1ccccc1-2

1: 0.18; 2: 0.41
